assay.procedure: chemical genetic growth profiling, strain panel (AID 1159580);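 note: tested at 20 µM; growth read once vehicle control cultures reached saturation at 30 °C; 1 = growth at the plate median or of vehicle wells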
applied.conditions: S. cerevisiae deletion strains, growth OD, locus YLR262C, strain YPT6 (second series), stronger effect = lower value
Hit rate of the full screen: of about 5,500 compounds, about 2,000 (36%) were called active. Not shown: some 18% with an inconclusive outcome. This is one part of the list.
One threshold, 1, splits the recorded normalized growth values: lower ones are YES, equal or higher ones are NO.

In [3]: df
Out[3]:
                                   molecule  category
0  O=C1O[C@H](C(O)CO)C(O)=C1O (stereo partly specified)       YES

Identify whether the molecule `O=C(O)c1ccccc1Nc1cccc(C(F)(F)F)c1` records normalized growth below 1. YES

Please give the result for `CCOP(=S)(OCC)SCn1c(=O)oc2cc(Cl)ccc21` too. YES

Please give the result for Nc1ncnc2c1ncn2C1O[C@H](COP(=O)(O)O)[C@@H](O)[C@H]1O (stereo partly specified) too. NO

---

assay.procedure: chemical genetic growth profiling, strain panel (AID 1159580);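 note: tested at 20 µM; growth read once vehicle control cultures reached saturation at 30 °C; 1 = growth at the plate median or of vehicle wells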
applied.conditions: S. cerevisiae deletion strains, growth OD, locus YCL069W, strain vba3
The whole screen tested about 5,500 compounds, of which about 2,000 (36%) were called active. About 18% were inconclusive and are not listed. No stated cut-off is given here; in the data, active means normalized growth mostly below about 0.91 (no sharp cut-off); inconclusive means no clear call, values can overlap the other calls; inactive means mostly above about 0.92. This is one part of the list.
Would you mind answering with one of these outcomes? t = active, f = inactive

Field: example entries. Status: answers known.
compound	category
C=C(NC(=O)C(=C)NC(=O)c1csc(C2=NC3c4csc(n4)C4NC(=O)c5csc(n5)C(C(C)(O)C(C)O)NC(=O)C5CSC(=N5)C(=CC)NC(=O)C(C(C)O)NC(=O)c5csc(n5)C3(CC2)NC(=O)C(C)NC(=O)C(=C)NC(=O)C(C)NC(=O)C(C(C)CC)NC2C=Cc3c(C(C)O)cc(nc3C2O)C(=O)OC4C)n1)C(N)=O (stereo not drawn)	f
COc1c2c(cc3c1OCO3)CCN(C)C2	f
O=C(OC1Cc2c(O)cc(O)cc2OC1c1cc(O)c(O)c(O)c1-c1c(C2Oc3cc(O)cc(O)c3CC2OC(=O)c2cc(O)c(O)c(O)c2)cc(O)c(O)c1O)c1cc(O)c(O)c(O)c1 (stereo not drawn)	f
Oc1c(Cl)cc(Cl)c2cccnc12	t
Cc1ccc2c(Cl)cc(Cl)c(O)c2n1	f
COC(C)(C)CCC[C@H](C)C/C=C/C(C)=C/C(=O)OC(C)C	f
O=C(O)c1ccccc1Nc1cccc(C(F)(F)F)c1	t

Could you now consider this next compound?
Query: recorded result category for `Oc1ccc(Cl)c2cccnc12` in this test t

---

assay.procedure: chemical genetic growth profiling, strain panel (AID 1159580);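 note: tested at 20 µM; growth read once vehicle control cultures reached saturation at 30 °C; 1 = growth at the plate median or of vehicle wells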
applied.conditions: S. cerevisiae deletion strains, growth OD, locus YJL187C, strain SWE1 (second series)
The campaign covered roughly 5,500 compounds. About 2,000 (36%) were called active. About 18% were inconclusive and are not listed. Cut-off read from the data, not from the text of the source: active = normalized growth mostly below about 0.91 (no sharp cut-off); inconclusive = no clear call, values can overlap the other calls; inactive = mostly above about 0.92. This is one part of the list.
Would you mind answering with one of these outcomes? 1 for active, 0 for inactive

Field: example entries. Status: answers known.
>>> print(df.to_string())
                                   compound  category
0                    COC(=O)Oc1ccccc1C(=O)O         0
1  O=[N+]([O-])c1cc(O)c(O)c([N+](=O)[O-])c1         0
2                        CC(=O)NCCCCCC(=O)O         0
3         O=C(O)c1cccnc1Nc1cccc(C(F)(F)F)c1         0

Query: recorded result category for CC(C)NCC(O)c1ccc(O)c(O)c1 (configuration not stated) in this test 0

Please give the result for `CC(=O)Oc1ccc(Cl)c2cccnc12` too. 1

Please give the result for `O=[N+]([O-])c1ccc(O)c([N+](=O)[O-])c1` too. 1

Please give the result for `CNC[C@@H](O)c1ccc(O)c(O)c1` too. 0

Please give the result for O=C1C=CC2=C3c4cc(O)c(O)cc4CC3(O)COC2=C1O (configuration not stated) too. 1

Origin of measurements: PubChem BioAssay AID1159580
